- measurement.protocol: Dynamic light scattering of LNPs: Z-average diameter, number average diameter, PDI
- Format: physicochemical
- condition: LNP, sg:mRNA 1:1, N/P about 6, 50/9/38/3; Table 2, Experiments 2-20
Param threshold (60 nm) applies to Number mean (nm); output T when value >= threshold, F when value < threshold.

compound="CCCCC/C=C\\C/C=C\\CCCCCCCC(=O)OCC(COC(=O)OCCCN(CC)CC)COC(=O)C(CCCCCC)CCCCCCCC (stereo not shown)" label_class=F
compound="CCCCC/C=C\\C/C=C\\CCCCCCCC(=O)OCC(COC(=O)CCC(OCCCCCCCC)OCCCCCCCC)COC(=O)N1CCN(CC)CC1 (stereo not shown)" label_class=F
compound="CCCCCC/C=C\\COC(=O)CCCCCCCCCC(=O)OCC(COC(=O)CCC(OCCCCCCCC)OCCCCCCCC)COC(=O)OCCCN(CC)CC (stereo not shown)" label_class=T
compound="CCCCCCCCCCOC(=O)CCCCCCCC(=O)OCC(COC(=O)CCCC(=O)OC(CCCCCCCC)CCCCCCCC)COC(=O)OCCC1CCCN1C (stereo not shown)" label_class=T
compound="CCCCC/C=C\\C/C=C\\CCCCCCCC(=O)OCC(COC(=O)CCC(OCCCCCCCC)OCCCCCCCC)COC(=O)OCC1CCCN1C (stereo not shown)" label_class=F
compound="CCCCC/C=C\\C/C=C\\CCCCCCCC(=O)OCC(COC(=O)CCC(OCCCCCCCC)OCCCCCCCC)COC(=O)NC1CCN(CC)C1 (stereo not shown)" label_class=F
compound="CCCCC/C=C\\C/C=C\\CCCCCCCC(=O)OCC(COC(=O)CCC(OCCCCCCCC)OCCCCCCCC)OC(=O)OCCCN(CC)CC (stereo not shown)" label_class=F
compound="CCCCC/C=C\\C/C=C\\CCCCCCCC(=O)OCC(COC(=O)CCCCN(CC)CC)COC(=O)CCC(OCCCCCCCC)OCCCCCCCC (stereo not shown)" label_class=T
compound="CCCCCCCCCCOC(=O)CCCCCCCC(=O)OCC(COC(=O)CCC(OCCCCCCCC)OCCCCCCCC)COC(=O)OCC1CCCN(C)C1 (stereo not shown)" label_class=T
compound="CCCCC/C=C\\C/C=C\\CCCCCCCC(=O)OCC(COC(=O)CCC(OCCCCCCCC)OCCCCCCCC)COC(=O)NCC1CCCN1C (stereo not shown)" label_class=T
compound="CCCCCCCCCCOC(=O)CCCCCCCC(=O)OCC(COC(=O)CCCCCC(=O)OC(CCCCCCCC)CCCCCCCC)COC(=O)OCCC1CCCN1C (stereo not shown)" label_class=T
